Reference source: PubChem BioAssay (NCATS)

Biological target: Retinaldehyde dehydrogenase 3 (Homo sapiens) (UniProt P47895)
Assay: qHTS for Inhibitors of the Aldehyde Dehydrogenase Family (ALDH1A3) Primary screen (AID 2061315)
Conditions: ALDH inhibition qHTS; series mostly up to 56 µM
Results filed as inconclusive are left out. Activity calls are given as the source filed them. Calls follow the shape of the dose curve; as a rule, active = well fitted inhibition curve with a large enough effect; inconclusive = small, poorly fitted or top-dose-only effect; inactive = no such curve, though single readings can be large or run the other way.
quantity.kind: activity change, negative = inhibition

Reported activity change, negative = inhibition, compound c1cc(NCCc2c[nH]c3ccccc23)cc(Nc2ccncc2)c1 : ____ inactive

Reported activity change, negative = inhibition, compound CCOc1ccc(Nc2nc(-c3c(C)nc4ccccn34)cs2)cc1 : ____ inactive

Reported activity change, negative = inhibition, compound C[C@@H](c1nc(-c2ccc(C#N)cc2)cs1)[C@](O)(Cn1cncn1)c1cc(F)ccc1F : ____ inactive

Reported activity change, negative = inhibition, compound C/C(=C\CC[C@@H](C)[C@H]1CC(O)[C@@]2(C)C3CC[C@H]4C(C)(C)[C@@H](OC5OCC(O)C(O)C5OC5OC(CO)C(O)C(O)C5O)CC[C@@]45C[C@@]35CC(O)[C@]12C)C(=O)O (some centres undefined) : ____ inactive
